The measured values listed here are drawn from patent US20040006094A1.

TEST TARGET: differentiated P19 neurons
METHOD NOTES: Differentiated P19 excitotoxicity assay: neuroprotection by known kinase inhibitors against glutamate/glycine (Alamar Blue, CFDA)
Assay type: cell-based, murine
COND: 3 mM glutamate, 1 mM glycine; mean of three separate curves; read-out: IC50 for Neuroprotection [lower-upper 95% C.I.]
Please provide measured IC50 for the entries that follow.

Task item: # input compound: COc1c(C[C@@H](C)OC(=O)Oc2ccc(O)cc2)c2c3c(C[C@@H](C)OC(=O)c4ccccc4)c(OC)c(=O)c4c(O)cc(OC)c(c5c(OC)cc(O)c(c1=O)c52)c43 ; wanted: its IC50
Reply: > 1 µM

Task item: Proceed to O=C(O)c1cc(N(Cc2ccccc2O)Cc2cc(O)ccc2O)ccc1O
Reply: > 10 µM

Task item: Proceed to O=S(=O)(NCCNC/C=C/c1ccc(Br)cc1)c1cccc2cnccc12
Reply: > 10 µM

###

System: differentiated P19 neurons
METHOD NOTES: Drug screening using differentiated P19 cell assay (neuroprotection against 3 mM glutamate and 1 mM glycine)
Type: cell-based, murine
COND: dose response 0.005-3 μM; >1 = no observed maximum within highest dose tested (3 μM)
RESULT TYPE: IC50 (µM)
State just the number; it will be interpreted in µM.

Task item: # input molecule: CN(C)c1ccc(Nc2cc(-c3ccc4ccccc4c3)ncn2)cc1 ; wanted: its IC50
Reply: 0.54

Task item: Proceed to CN(C)c1ccc(Nc2cc(-c3cc4ccccc4o3)ncn2)cc1
Reply: 0.48

Task item: Proceed to CCN(CCO)c1ccc(Nc2cc(-c3cc(C(F)(F)F)cc(C(F)(F)F)c3)ncn2)cc1
Reply: 0.48

Task item: Proceed to CN(C)c1ccc(Nc2cc(-c3ccc(OCc4ccccc4)cc3)ncn2)cc1
Reply: 0.2

Task item: Proceed to CCN(CCO)c1ccc(Nc2cc(-c3ccc4ccccc4c3)ncn2)cc1
Reply: 0.57

Task item: Proceed to CCn1c2ccccc2c2ccc(Nc3cc(-c4ccc(N5CCN(C)CC5)cc4)ncn3)cc21
Reply: 0.55

###

Test system: differentiated P19 neurons
METHOD NOTES: Differentiated P19 excitotoxicity assay: neuroprotection by known kinase inhibitors against glutamate/glycine (Alamar Blue, CFDA)
Type: cell-based, murine
COND: 3 mM glutamate, 1 mM glycine
RESULT TYPE: Maximal Efficacy for Neuroprotection

# MOLECULE, OBSERVED RESULT
measured = [
    ("COc1c(C[C@@H](C)OC(=O)Oc2ccc(O)cc2)c2c3c(C[C@@H](C)OC(=O)c4ccccc4)c(OC)c(=O)c4c(O)cc(OC)c(c5c(OC)cc(O)c(c1=O)c52)c43 [Calphostin C]", "˜50%"),
    ("O=S(=O)(NCCNC/C=C/c1ccc(Br)cc1)c1cccc2cnccc12 [H-89]", "<25%"),
    ("CN([C@@H](Cc1ccc(OS(=O)(=O)c2cccc3cnccc23)cc1)C(=O)N1CCN(c2ccccc2)CC1)S(=O)(=O)c1cccc2cnccc12 [KN62]", "<10%"),
    ("O=C(O)c1cc(N(Cc2ccccc2O)Cc2cc(O)ccc2O)ccc1O [Lavendustin A]", "<25%"),
]

###

Tested on: differentiated P19 neurons
METHOD NOTES: Drug screening using differentiated P19 cell assay (neuroprotection against 3 mM glutamate and 1 mM glycine)
Format: cell-based, murine
COND: Mus musculus, Neuron; dose response 0.005-3 μM; >1 = no observed maximum within highest dose tested (3 μM)
RESULT TYPE: log10 IC50 (log10 of the value in µM)
Kindly note that the scale is log10 and the underlying IC50 is in µM.

Task item: State its log10 IC50 on differentiated P19 neurons: CCN(CCO)c1ccc(Nc2cc(-c3cc4ccccc4s3)ncn2)cc1
Reply: -0.62

Task item: Proceed to CCN(CCO)c1ccc(Nc2cc(-c3cccc(N(C)C)c3)ncn2)cc1
Reply: -0.33

Task item: Proceed to CCN(CCO)c1ccc(Nc2cc(-c3ccccc3Oc3ccccc3)ncn2)cc1
Reply: -0.24

Task item: Proceed to CCN(CCO)c1ccc(Nc2cc(-c3cccc(-c4ccccc4)c3)ncn2)cc1
Reply: -1.15

Task item: Proceed to CN(C)c1ccc(Nc2cc(-c3ccc(N(C)C)cc3)ncn2)cc1
Reply: -0.48

Task item: Proceed to CCN(CCO)c1ccc(Nc2cc(-c3cccc([N+](=O)[O-])c3)ncn2)cc1
Reply: -0.26

Task item: Proceed to CCN(CCO)c1ccc(Nc2cc(-c3ccc(OC(F)(F)F)cc3)ncn2)cc1
Reply: -0.64

Task item: Proceed to CCN(CCO)c1ccc(Nc2cc(-c3ccc(CNC(=O)OC(C)(C)C)cc3)ncn2)cc1
Reply: 0.04

Task item: Proceed to CCN(CCO)c1ccc(Nc2cc(-c3cnc(OCc4ccccc4)nc3OCc3ccccc3)ncn2)cc1
Reply: -0.41

Task item: Proceed to CCN(CCO)c1ccc(Nc2cc(-c3ccc(SC)cc3)ncn2)cc1
Reply: -0.39

Task item: Proceed to CN(C)c1ccc(Nc2cc(-c3cccc(-c4ccccc4)c3)ncn2)cc1
Reply: -0.66

Task item: Proceed to CN(C)c1ccc(Nc2cc(-c3cc(C(F)(F)F)cc(C(F)(F)F)c3)ncn2)cc1
Reply: -0.59

Task item: Proceed to CCN(CCO)c1ccc(Nc2cc(-c3ccsc3)ncn2)cc1
Reply: -0.07

Task item: Proceed to CCN(CCO)c1ccc(Nc2cc(-c3ccc(-c4ccccc4)cc3)ncn2)cc1
Reply: -0.31

Task item: Proceed to CCN(CCO)c1ccc(Nc2cc(C3C=C4C=CC=CC4O3)ncn2)cc1 (centres unmarked)
Reply: -0.27
